Target: T1, EsCas13d, nuclease-dead (Eubacterium siraeum, UniProt B0MS50, R295A;H300A;R849A;H854A)
T1 sequence: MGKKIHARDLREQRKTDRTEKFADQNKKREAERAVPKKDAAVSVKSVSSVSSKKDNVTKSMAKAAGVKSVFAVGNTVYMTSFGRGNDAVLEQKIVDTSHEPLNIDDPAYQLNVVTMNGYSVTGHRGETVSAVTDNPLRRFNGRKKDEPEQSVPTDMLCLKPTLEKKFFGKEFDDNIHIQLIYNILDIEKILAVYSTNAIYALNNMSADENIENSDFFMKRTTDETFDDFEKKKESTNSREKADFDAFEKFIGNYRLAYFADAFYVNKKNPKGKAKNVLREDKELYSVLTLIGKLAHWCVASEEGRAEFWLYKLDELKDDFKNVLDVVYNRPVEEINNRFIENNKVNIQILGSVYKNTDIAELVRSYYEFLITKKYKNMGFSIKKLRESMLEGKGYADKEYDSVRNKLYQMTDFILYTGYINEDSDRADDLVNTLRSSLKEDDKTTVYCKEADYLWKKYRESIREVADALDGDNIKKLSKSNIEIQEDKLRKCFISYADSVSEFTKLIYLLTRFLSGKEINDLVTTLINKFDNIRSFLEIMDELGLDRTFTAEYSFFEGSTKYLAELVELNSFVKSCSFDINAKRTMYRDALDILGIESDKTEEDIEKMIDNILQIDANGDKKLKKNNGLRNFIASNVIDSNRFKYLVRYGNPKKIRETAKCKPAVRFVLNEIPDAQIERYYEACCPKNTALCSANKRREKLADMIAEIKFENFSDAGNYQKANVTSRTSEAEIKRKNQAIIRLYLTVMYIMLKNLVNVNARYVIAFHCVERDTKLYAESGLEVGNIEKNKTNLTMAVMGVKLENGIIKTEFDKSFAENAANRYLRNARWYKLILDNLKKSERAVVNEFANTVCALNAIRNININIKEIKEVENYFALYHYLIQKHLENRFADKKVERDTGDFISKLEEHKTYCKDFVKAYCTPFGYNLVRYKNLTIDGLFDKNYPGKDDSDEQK
Test: crRNA (strand 1, pre-loaded); Mg2+; 40 mM Tris-HCl pH 7.5, 150 mM NaCl, 6 mM MgCl2, 1 mM DTT, 0.1% Tween-20, 0.2 mg/ml BSA; 25 C; 10 min per concentration, then washed
Settings: tags: His6-TwinStrep-SUMO cleaved; N-terminal SNAP kept (SNAP-Surface 488); label: 3' end held by stalled T7 RNA polymerase
REPORTED_PROPERTY: Kd (nM)
I only need the number, in nM, no unit after it.

[[record]]
binder = "target 2 MT 5'PFS AGG 3'PFS UAC (mixed) RNA 1: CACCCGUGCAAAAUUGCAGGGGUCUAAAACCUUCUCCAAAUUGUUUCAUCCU RNA 2: GGGAAUGGAUCCACAUCUACGAAUUCAGGAGGAUGAAACAAUUUGGAGAAGUACAGAUCGGAAGAGCACACGU"
reported_property = "Kd"
measured_value = 7.3

[[record]]
binder = "target 1 insC 3' of 19,insC 3' of 13 (mixed) RNA 1: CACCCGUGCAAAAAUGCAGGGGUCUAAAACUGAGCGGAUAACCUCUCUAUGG RNA 2: GGGAAUGGAUCCACAUCUACGAAUUCGUACCAUCAGAGAGCGUUAUCCGCUCACCGAGAUCGGAAGAGCACACGU"
reported_property = "Kd"
measured_value = 49

[[record]]
binder = "target 2 MT 5'PFS UGC 3'PFS AUG (mixed) RNA 1: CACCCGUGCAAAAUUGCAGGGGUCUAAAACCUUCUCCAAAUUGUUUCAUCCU RNA 2: GGGAAUGGAUCCACAUCUACGAAUUCUGCAGGAUGAAACAAUUUGGAGAAGAUGAGAUCGGAAGAGCACACGU"
reported_property = "Kd"
measured_value = 28


Proceed to the following item.
Challenge: Would you kindly share the measured Kd for target 1 insU 3' of 20,insG 3' of 1 (mixed) RNA 1: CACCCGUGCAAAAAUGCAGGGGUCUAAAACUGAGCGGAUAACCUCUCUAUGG RNA 2: GGGAAUGGAUCCACAUCUACGAAUUCGUACCAUUAGAGAGGUUAUCCGCUCAGCCGAGAUCGGAAGAGCACACGU ?
Response given: 11.8
